All values here come from the DeepSol protein solubility set.

Assay: soluble on expression in E. coli; label from the status in PepcDB or PDB records
MEASUREMENT KIND: soluble on expression in E. coli

[
  {
    "SEQUENCE DATA": "MSLEFQLDLIRGEHMEIEKLLEQVNWEKNNGIVPVIVQDEKGEVLTLAYMNKEALRKTLETGIAHYYSRSKGRIRMKGEVSGNIQTVKEIKIDCDNDALLLIVSPKGPACHTGNYSCFYRKLGEPERVLPIDYSLSILKELEEIIKRRKETPVEGSYTSKLFKEGREKIYKKFGEEAIEVLVAEKRERIIYEVADLLYHLLVLLTYNDISLGEVMNELRRRRKEGHHHHHH",
    "ENDPOINT VALUE": "soluble"
  },
  {
    "SEQUENCE DATA": "MAHHHHHHMGTLEAQTQGPGSMQYPPRLGFGTWQAPPEAVQTAVETALMTGYRHIDCAYVYQNEEAIGRAFGKIFKDASSGIKREDVWITSKLWNYNHRPELVREQCKKTMSDLQVDYLDLFLVHWPLAFVRNDVGDLFPKDAEGRAMLEKVPLADTWRAMEQLVEEGLVKHIGVSNYTVPLLADLLNYAKIKPLVNQIEIHPWHPNDATVKFCLDNGIGVTAYSPMGGSYADPRDPSGTQKNVILECKTLKAIADAKGTSPHCVALAWHVKKWNTSMYSVIPKSQTPARIEANFKCTEVQLSDDDMDAINNIHLNKRIRFCDPAIFWKVPLFD",
    "ENDPOINT VALUE": "soluble"
  }
]

====

Assay: soluble on expression in E. coli; label from the status in PepcDB or PDB records
MEASUREMENT KIND: soluble on expression in E. coli

In the examples that follow, each entry is paired with its recorded soluble on expression in E. coli.
[
  {
    "SEQUENCE DATA": "SMLSAASRVVSRAAVHCALRSPPPEARALAMSRPPPPRVASVLGTMEMGRRMDAPASAAAVRAFLERGHTELDTAFMYSDGQSETILGGLGLGLGGGDCRVKIATKANPWDGKSLKPDSVRSQLETSLKRLQCPQVDLFYLHAPDHGTPVEETLHACQRLHQEGKFVELGLSNYASWEVAEICTLCKSNGWILPTVYQGMYNATTRQVETELFPCLRHFGLRFYAYNPLAGGLLTGKYKYEDKDGKQPVGRFFGNSWAETYRNRFWKEHHFEAIALVEKALQAAYGASAPSVTSAALRWMYHHSQLQGAHGDAVILGMSSLEQLEQNLAATEEGPLEPAVVDAFNQAWHLVAHECPNYFR",
    "soluble on expression in E. coli": "soluble"
  },
  {
    "SEQUENCE DATA": "MKKPVHDMRQHIIDVARSLMTNKGYTAVGLAEVLITAGVPKGSFYYYFKSKEEFGQALLEEYFSEYLGRVDALMARPGTGAERLLAYFMYWSETQGTDLPEGKCLVVKLGAEVCDLSEDMRCVLEVGTAKIIQRISACVEMGVSDGSIHPEGDHQGFAESLYQLWLGASLLVKVNKSTESFDKALNMTKRLLK",
    "soluble on expression in E. coli": "not soluble"
  },
  {
    "SEQUENCE DATA": "MARLSQEIILDMAEQIIYEKGMEKTTLYDIAGNLNVTHAALYKHYRNKEDLFQKLALRWLEETSREIFAWTKEKDASPDDALHDWLWLLADTKKTLYKTDRKMFLLYTDYIEQKEELVKNHIEHLAQKAEEVSGRVNQGDAIITAFIYFHNPYFASRWEKAGYVELFERVWQVVR",
    "soluble on expression in E. coli": "not soluble"
  },
  {
    "SEQUENCE DATA": "MGSDKIHHHHHHVTAPAFLPVILAGGSGERFWPLSRKHRPKQFLTLDETGRSLLQATSDRLGRLSGSPEQVMVVTGTEYRTQVLEQLPDMPIEHLIVEPVARDTAPAVLYAALRVAQENPQAVMGVFPADHRITDAQAFGRVVRRAIEVAEITGGLVTLGVTPTFPATGYGYIQRGEQLLGGELPAFRVSRFTEKPDAETAQLFLADGRYTWNSGMFIWRVQAILAAFEQYQPDMYAQLSAAVRGSPRQVRAVFPELQKISIDYAILEKSDQVVVIPAEFGWDDLGDWNALERLLKGEGQNVAVGRHVGLDTDGAILYTTGGDGLIATIGLEDVVVVRTDEVTLVVRKDRTQDIKKVVQQLKSHPELERFA",
    "soluble on expression in E. coli": "not soluble"
  },
  {
    "SEQUENCE DATA": "MAHHHHHHMSLADEVPREWASSIRPFLQRADEFQERVPVVAYFLRTHAVYLAMKMWRKEDGPGKAFIVKLLDTLESEKKRLEQELADVDGRVLLTQYALRIFSRADDEERSDGVVANMNLVRLFFTASLLFEATAQFTDDGTLDPIATEKRDYARYIAVEMKKAMDKGVPYVSPNRTGGMVESNKEHEGESTGGGGFSTNFVQSQQPGYGQWSAQYVTPQPPPPSHEPPETPMWSGPESTNTSSTQQQQQSTPLFQTTAQPNNSNDNSNIAAAVSGVAAPKGPTMDAIIEAQNYAKQAVSALQFYDHEVACKMLRSALDLLAQR",
    "soluble on expression in E. coli": "soluble"
  }
]

### Prompt Please look up its soluble on expression in E. coli: MGSDKIHHHHHHVNVAQPEPGSGPTVRRMLLGSQLRRLREAKGISRADAAYKIRGSESKISRIELGRVGFKTRDVEDLLTFYGVEDEAVRDSFLKLAREANEPGWWQQYGDSLPSWFQSYVGMEEAATQLRVYETQFVPGLLQTEDYARAVVTRGGRKKLDDAARHRIATRMRRQERIRKNHNVKLWVIIDEPAVRRPVGTPEVMRAQLEHLYDLSMAPNITLQIVPFHQGVFAAETGSFTILRYPEYDLPDVVYVEQLTSCLFQEKRADVEQYTMTLEWLAVVAERPDQTRKMLQKMIKELEE
### Response not soluble

### Prompt Please look up its soluble on expression in E. coli: DKLYPCQCGKSFTHKSQRDRHMSMHLGLRPYGCGVCGKKFKMKHHLVGHMKIHTGIKPYECNICAKRFMWRDSFHRHVTSCTKSYEAAKAEQNTTEA
### Response soluble

### Prompt Please look up its soluble on expression in E. coli: SLFITDKRVKESATALNPSMFQGLYLQDQMLKDPTYLPIYGSSELSRLDEFHPSNYFQVNNEGFTPYLVGKGGSQSLIHSLNFAAHMDQLKGKKIVFIVSPQWFIKRGSDEQHFAPNYSALQGLDLAFNDQIDPEIKKKMMKRMLRFKAVQNDAILSELYKAMVNGQTWKVNALKPAAKVYYSMLEKKDLYYSTTESSGPKRYISQSVKDKSWSELNKLADQSGKRHSGSNDFHIDNPVYKKLKPKVPKLKGKNKGRSYAVSPEYGDFEMMLDILKDAGAEPMFVTIPVNGKWYDYTGFPKKGRTDYYKKVNKQIRAKGFQVADFSGHEYDPYFMKDTIHIGWKGWVYVDKAIDEFYKTGKVTSS
### Response soluble

### Prompt Please look up its soluble on expression in E. coli: MGSDKIHHHHHHMIKSVLVIRNDKIGDFVLTWPALYELKMALPNASIEVFVDPVLKDFAMACPYIDHVIVDDGDDQAITKAFAERHYDAVIVSRSQIRTYRLLRKLDIPYKLAPKLNWYQYLYQHRTSIEVPKGLGGWRKSCMMVERFLADHRIPVPTLPTRYWDLSHERRKWQDHYGQQGEERLIFAHPGTGGSSGGISPSDFAGLLAQVDKLTAIECKFVLTYSGQEIALAQQIYDLLSAQGIKVVMAEPLASLADFAKSLVAADMFMAGSTGPLHIAGLHNVPTVGFYAGRRSAPKVRWQTLTQSERRLAFTPPVGKKTGRNMALIDFDLAAKEIAAFLDTQYASQSAVS
### Response not soluble

### Prompt Please look up its soluble on expression in E. coli: MADLLPPLTAAQVDAKTKVDEKVDYSNLPSPVPYEELHREALMSLKSDNFEGLRFDFTRALNQKFSLSHSVMMGPTEVPAQSPETTIKIPTAHYEFGANYYDPKLLLIGRVMTDGRLNARLKADLTDKLVVKANALITNEEHMSQAMFNFDYMGSDYRAQLQLGQSALIGATYIQSVTNHLSLGGEIFWAGVPRKSGIGYAARYETDKMVASGQVASTGAVVMNYVQKISDKVSLATDFMYNYFSRDVTASVGYDYMLRQARVRGKIDSNGVASALLEERLSMGLNFLLSAELDHKKKDYKFGFGLTVG
### Response not soluble
